- target system: HLA-A*02:03
- method notes: IEDB peptide-MHC binding, purified MHC/competitive/radioactivity; filed as Kd, often an IC50 or EC50 that approximates it; bounds were set here for any values at or beyond the usual limits of such assays
- test parameters: source organism: Homo sapiens
pKd: −log10 of the molar value.
property label: pKd

[
  {
    "seq string": "QLEELEDEL",
    "measurement": "≤ 4.16"
  },
  {
    "seq string": "DMEISAYRKL",
    "measurement": "≤ 4.56"
  }
]

---

- target system: HLA-A*11:01
- method notes: IEDB peptide-MHC binding, purified MHC/competitive/radioactivity; filed as Kd, often an IC50 or EC50 that approximates it; bounds were set here for any values at or beyond the usual limits of such assays
- test parameters: source organism: Dengue virus 3 Martinique/1243/1999

[
  {
    "seq string": "TSADLTVEK",
    "target system": "HLA-A*11:01",
    "Kd, µM": 0.185
  },
  {
    "seq string": "ASSMINGVVK",
    "target system": "HLA-A*11:01",
    "Kd, µM": 0.0392
  },
  {
    "seq string": "TSIFAGHLK",
    "target system": "HLA-A*11:01",
    "Kd, µM": 0.0391
  }
]
